Source: paper PMC10397247

# STUDY SYSTEM: T1, 4H477-bA
# T1 chain: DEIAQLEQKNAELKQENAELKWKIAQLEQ
# MEASUREMENT PROTOCOL: two-hybrid library CCNG1;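 also: natural log of median RNA to DNA barcode read ratio; higher means stronger binding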
READOUT LABEL: interaction score

Solved entries:
-- ask Given the entry DEIAQLEQEIAELKQKNAELKWEIAQLEQ [4H121-bA] , report its measured interaction score.
-- reply -1.12

-- ask Given the entry DEIAQLEQEIAELEQKIAELEWKNAQLKQ [4H40-bA] , report its measured interaction score.
-- reply -1.02

-- ask Given the entry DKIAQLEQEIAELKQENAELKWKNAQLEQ [4H2143-bA] , report its measured interaction score.
-- reply -1.41

a. DKIAQLKQKNAELKQKNAELEWEIAQLEQ [4H3057-bA]
b. DEIAQLEQKNAELKQENAELKWKIAQLEQ [4H477-bA]
-- ask Determine, for a and b , which has the greater value of interaction score. Mark your selection by writing its label.
-- reply b
(b: -0.249, a: -1.12)
